Assay: in vivo
Conditions: mouse, plasma, po, 250 mg.kg^-1
measured_endpoint: concentration at 1 h

Exercise: Using known records, supply concentration at 1 h for CN(C)C(=N)N=C(N)N [metformin, N,N-dimethylbiguanide]
Solution: 125 to 150 µM
